Test system: RKO (human colon adenocarcinoma cell)
assay method text: MTT solid tumor cell growth inhibition, 72 h
Type: cell-based
measurement context: Homo sapiens, read-out: IC90
observed property: IC90 (µg/mL)
Report as a plain number; the unit µg/mL is understood.

stdin: Name the recorded IC90 of the item COC1=C[C@]23CCCN2CCc2cc4c(cc2[C@@H]3[C@@H]1OC(=O)[C@@](O)(CCCC(C)(C)O)CC(=O)Nc1nccs1)OCO4 in your answer.
stdout: 16

stdin: Name the recorded IC90 of the item COC1=C[C@]23CCCN2CCc2cc4c(cc2[C@@H]3[C@@H]1OC(=O)[C@@](O)(CCCC(C)(C)O)CC(=O)N1CCN(c2ccccn2)CC1)OCO4 in your answer.
stdout: 2.37

---

System: Jurkat (acute lymphoblastic leukemia, ALL)
assay method text: MTT leukemia cell growth inhibition, 72 h
Type: cell-based, human
measurement context: Homo sapiens, read-out: IC50
Simple rule here: IC50 less than 1 µg/mL is class 1, otherwise class 0.

stdin: Does the reported IC50 of COC1=C[C@]23CCCN2CCc2cc4c(cc2[C@@H]3[C@@H]1OC(=O)[C@@](O)(CCCC(C)(C)O)CC(=O)NCc1ccc(C)o1)OCO4 stay below 1 µg/mL?
stdout: class 1

stdin: Does the reported IC50 of COCCCNC(=O)C[C@](O)(CCCC(C)(C)O)C(=O)O[C@@H]1C(OC)=C[C@]23CCCN2CCc2cc4c(cc2[C@H]13)OCO4 stay below 1 µg/mL?
stdout: class 0

stdin: Does the reported IC50 of COC1=C[C@]23CCCN2CCc2cc4c(cc2[C@@H]3[C@@H]1OC(=O)[C@@](O)(CCCC(C)(C)O)CC(=O)Nc1nccs1)OCO4 stay below 1 µg/mL?
stdout: class 0

stdin: Does the reported IC50 of COC1=C[C@]23CCCN2CCc2cc4c(cc2[C@@H]3[C@@H]1OC(=O)[C@@](O)(CCCC(C)(C)O)CC(=O)N1CCN(C(C)C)CC1)OCO4 stay below 1 µg/mL?
stdout: class 1

stdin: Does the reported IC50 of COC1=C[C@]23CCCN2CCc2cc4c(cc2[C@@H]3[C@@H]1OC(=O)[C@@](O)(CCCC(C)(C)O)CC(=O)N1CCC(O)CC1)OCO4 stay below 1 µg/mL?
stdout: class 0

stdin: Does the reported IC50 of COC1=C[C@]23CCCN2CCc2cc4c(cc2[C@@H]3[C@@H]1OC(=O)[C@@](O)(CCCC(C)(C)O)CC(=O)N1CCCCC1)OCO4 stay below 1 µg/mL?
stdout: class 0

stdin: Does the reported IC50 of COC1=C[C@]23CCCN2CCc2cc4c(cc2[C@@H]3[C@@H]1OC(=O)[C@@](O)(CCCC(C)(C)O)CC(=O)N1CCOCC1)OCO4 stay below 1 µg/mL?
stdout: class 0

stdin: Does the reported IC50 of CCN1CCN(C(=O)C[C@](O)(CCCC(C)(C)O)C(=O)O[C@@H]2C(OC)=C[C@]34CCCN3CCc3cc5c(cc3[C@H]24)OCO5)CC1 stay below 1 µg/mL?
stdout: class 1

stdin: Does the reported IC50 of COC1=C[C@]23CCCN2CCc2cc4c(cc2[C@@H]3[C@@H]1OC(=O)[C@@](O)(CCCC(C)(C)O)CC(=O)N1CCN(c2ccc(F)cc2)CC1)OCO4 stay below 1 µg/mL?
stdout: class 1

stdin: Does the reported IC50 of COC1=C[C@]23CCCN2CCc2cc4c(cc2[C@@H]3[C@@H]1OC(=O)[C@@](O)(CCCC(C)(C)O)CC(=O)N1CCCCC1C)OCO4 (stereo partly drawn) stay below 1 µg/mL?
stdout: class 1

stdin: Does the reported IC50 of COC1=C[C@]23CCCN2CCc2cc4c(cc2[C@@H]3[C@@H]1OC(=O)[C@@](O)(CCCC(C)(C)O)CC(=O)N1CCN(CCO)CC1)OCO4 stay below 1 µg/mL?
stdout: class 0

stdin: Does the reported IC50 of COC1=C[C@]23CCCN2CCc2cc4c(cc2[C@@H]3[C@@H]1OC(=O)[C@@](O)(CCCC(C)(C)O)CC(=O)NCc1ccco1)OCO4 stay below 1 µg/mL?
stdout: class 0
